These entries and their values trace back to paper PMC7582571.

- Measured Target: Tdp1 (Homo sapiens)
- Sequence (Q9NUW8 whole entry): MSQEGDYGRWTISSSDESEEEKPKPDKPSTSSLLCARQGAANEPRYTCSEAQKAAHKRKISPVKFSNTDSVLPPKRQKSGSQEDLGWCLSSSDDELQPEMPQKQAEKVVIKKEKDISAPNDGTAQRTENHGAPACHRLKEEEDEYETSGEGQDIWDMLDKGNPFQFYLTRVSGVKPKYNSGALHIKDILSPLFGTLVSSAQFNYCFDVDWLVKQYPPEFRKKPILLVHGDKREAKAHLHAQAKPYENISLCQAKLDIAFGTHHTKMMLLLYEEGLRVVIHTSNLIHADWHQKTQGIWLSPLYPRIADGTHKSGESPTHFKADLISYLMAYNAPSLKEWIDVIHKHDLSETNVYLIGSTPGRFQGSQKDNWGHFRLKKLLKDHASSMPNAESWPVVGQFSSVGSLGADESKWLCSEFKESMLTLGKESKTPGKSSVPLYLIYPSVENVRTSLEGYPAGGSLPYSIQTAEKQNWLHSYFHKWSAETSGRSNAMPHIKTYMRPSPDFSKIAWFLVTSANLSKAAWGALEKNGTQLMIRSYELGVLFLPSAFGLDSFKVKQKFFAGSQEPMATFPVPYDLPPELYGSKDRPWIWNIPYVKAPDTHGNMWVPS
- Protocol Text: Tdp1 activity, real-time fluorescence oligonucleotide biosensor (FAM/BHQ1) assay
- Type: biochemical
- Assay Context: purified Tdp1 1.5 nM, 50 nM biosensor; read-out: IC50 (Tdp1 inhibiting activity)
Assignment: determine reported IC50 for the given molecules.

Solved entries:
>  <Molecule>
CCS(=O)(=O)Oc1c(OC)ccc2cc3[n+](cc12)CCc1cc2c(cc1-3)OCO2 [10b]

>  <Measured Target>
Tdp1 (Homo sapiens)

>  <Measured Attribute>
IC50

>  <Result Value>
> 15 µM

$$$$
>  <Molecule>
CCCS(=O)(=O)Oc1c(OC)cc(Br)c2c1CN1CCc3cc4c(cc3C1C2)OCO4 (stereo not shown) [12c]

>  <Measured Target>
Tdp1 (Homo sapiens)

>  <Measured Attribute>
IC50

>  <Result Value>
2.9 µM

$$$$
>  <Molecule>
COc1cc(Br)c2c(c1OS(=O)(=O)c1c(F)c(F)c(F)c(F)c1F)CN1CCc3cc4c(cc3C1C2)OCO4 (stereo not shown) [12f]

>  <Measured Target>
Tdp1 (Homo sapiens)

>  <Measured Attribute>
IC50

>  <Result Value>
0.53 µM

$$$$
>  <Molecule>
CCCS(=O)(=O)Oc1c(OC)ccc2c1CN1CCc3cc4c(cc3C1C2)OCO4 (stereo not shown) [11c]

>  <Measured Target>
Tdp1 (Homo sapiens)

>  <Measured Attribute>
IC50

>  <Result Value>
> 15 µM

$$$$
>  <Molecule>
CCCCS(=O)(=O)Oc1c(OC)ccc2c1CN1CCc3cc4c(cc3C1C2)OCO4 (stereo not shown) [11d]

>  <Measured Target>
Tdp1 (Homo sapiens)

>  <Measured Attribute>
IC50

>  <Result Value>
> 15 µM

$$$$

# map each molecule to its IC50
1. CCS(=O)(=O)Oc1c(OC)cc(Br)c2c1CN1CCc3cc4c(cc3C1C2)OCO4 (stereo not shown) [12b]
2. COc1ccc2cc3[n+](cc2c1OS(C)(=O)=O)CCc1cc2c(cc1-3)OCO2 [10a]
3. COc1ccc2c(c1OS(C)(=O)=O)CN1CCc3cc4c(cc3C1C2)OCO4 (stereo not shown) [11a]
4. CCCS(=O)(=O)Oc1c(OC)ccc2cc3[n+](cc12)CCc1cc2c(cc1-3)OCO2 [10c]
5. COc1cc(Br)c2c(c1OS(=O)(=O)c1c(F)c(F)c(C(F)(F)F)c(F)c1F)CN1CCc3cc4c(cc3C1C2)OCO4 (stereo not shown) [12h]
6. COc1ccc2c(c1OS(=O)(=O)c1ccc(C)cc1)CN1CCc3cc4c(cc3C1C2)OCO4 (stereo not shown) [11e]
7. COc1cc(Br)c2c(c1OS(=O)(=O)c1c(F)c(F)cc(F)c1F)CN1CCc3cc4c(cc3C1C2)OCO4 (stereo not shown) [12g]

## Result
1. > 15 µM
2. > 15 µM
3. > 15 µM
4. > 15 µM
5. 1.4 µM
6. > 15 µM
7. 1.3 µM

Please state IC50 for every molecule in the list that follows.
1. COc1ccc2c(c1OS(=O)(=O)c1c(F)c(F)cc(F)c1F)CN1CCc3cc4c(cc3C1C2)OCO4 (stereo not shown) [11g]
2. CCCCS(=O)(=O)Oc1c(OC)cc(Br)c2c1CN1CCc3cc4c(cc3C1C2)OCO4 (stereo not shown) [12d]
3. COc1cc(Br)c2c(c1OS(C)(=O)=O)CN1CCc3cc4c(cc3C1C2)OCO4 (stereo not shown) [12a]
4. CCS(=O)(=O)Oc1c(OC)ccc2c1CN1CCc3cc4c(cc3C1C2)OCO4 (stereo not shown) [11b]
5. COc1ccc2c(c1OS(=O)(=O)c1c(F)c(F)c(C(F)(F)F)c(F)c1F)CN1CCc3cc4c(cc3C1C2)OCO4 (stereo not shown) [11h]
6. CCCCS(=O)(=O)Oc1c(OC)ccc2cc3[n+](cc12)CCc1cc2c(cc1-3)OCO2 [10d]
7. COc1cc(Br)c2c(c1OS(=O)(=O)c1ccc(C)cc1)CN1CCc3cc4c(cc3C1C2)OCO4 (stereo not shown) [12e]

## Result
1.05 µM
4 µM
> 15 µM
> 15 µM
0.9 µM
> 15 µM
> 15 µM

* * *

Answer each item with its documented CC50 at 3 days.
- Protocol Text: Intrinsic cytotoxicity, EZ4U cell proliferation and cytotoxicity assay
- Format: cell-based, human
- Assay Context: human, HeLa cells, compound alone, 3 days, read-out: CC50 (half maximal cytotoxic concentration)
Numbers only, in µM.

Study these solved cases before continuing.
>  <Molecule>
CC[C@@]1(O)C(=O)OCc2c1cc1n(c2=O)Cc2cc3c(CN(C)C)c(O)ccc3nc2-1 [topotecan, reference compound]

>  <CC50 at 3 days (µM)>
2

$$$$
>  <Molecule>
COc1ccc2c(c1OS(=O)(=O)c1c(F)c(F)c(C(F)(F)F)c(F)c1F)CN1CCc3cc4c(cc3C1C2)OCO4 (stereo not drawn) [11h]

>  <CC50 at 3 days (µM)>
2.6

$$$$
>  <Molecule>
COc1cc(Br)c2c(c1OS(=O)(=O)c1c(F)c(F)cc(F)c1F)CN1CCc3cc4c(cc3C1C2)OCO4 (stereo not drawn) [12g]

>  <CC50 at 3 days (µM)>
95

$$$$

Hey, quick one: what's CC50 at 3 days for each of these?
1. COc1cc(Br)c2c(c1OS(=O)(=O)c1c(F)c(F)c(F)c(F)c1F)CN1CCc3cc4c(cc3C1C2)OCO4 (stereo not drawn) [12f]
2. COc1cc(Br)c2c(c1OS(=O)(=O)c1c(F)c(F)c(C(F)(F)F)c(F)c1F)CN1CCc3cc4c(cc3C1C2)OCO4 (stereo not drawn) [12h]
3. COc1ccc2c(c1OS(=O)(=O)c1c(F)c(F)c(F)c(F)c1F)CN1CCc3cc4c(cc3C1C2)OCO4 (stereo not drawn) [11f]

## Result
1. 10
2. 2.2
3. 10

* * *

- System: HeLa cells
- Protocol Text: cells
- Assay Context: HeLa cells, 2 μM topotecan, Mann–Whitney U-test
Measured Attribute: effect of topotecan on the cytotoxicity of the Tdp1 inhibitor (in words)

Before answering, review these 5 worked examples.
>  <Molecule>
COc1ccc2c(c1OS(=O)(=O)c1c(F)c(F)c(F)c(F)c1F)CN1CCc3cc4c(cc3C1C2)OCO4 (centres unmarked) [11f]

>  <Result Value>
significantly increased

$$$$
>  <Molecule>
COc1cc(Br)c2c(c1OS(=O)(=O)c1c(F)c(F)c(C(F)(F)F)c(F)c1F)CN1CCc3cc4c(cc3C1C2)OCO4 (centres unmarked) [12h]

>  <Result Value>
negligible or unreliable

$$$$
>  <Molecule>
COc1ccc2c(c1OS(=O)(=O)c1c(F)c(F)c(C(F)(F)F)c(F)c1F)CN1CCc3cc4c(cc3C1C2)OCO4 (centres unmarked) [11h]

>  <Result Value>
negligible or unreliable

$$$$
>  <Molecule>
COc1ccc2c(c1OS(=O)(=O)c1c(F)c(F)cc(F)c1F)CN1CCc3cc4c(cc3C1C2)OCO4 (centres unmarked) [11g]

>  <Result Value>
significantly increased

$$$$
>  <Molecule>
COc1cc(Br)c2c(c1OS(=O)(=O)c1c(F)c(F)cc(F)c1F)CN1CCc3cc4c(cc3C1C2)OCO4 (centres unmarked) [12g]

>  <Result Value>
significantly increased

$$$$

Give one value of effect of topotecan on the cytotoxicity of the Tdp1 inhibitor (in words) per listed molecule.
1. CCCS(=O)(=O)Oc1c(OC)cc(Br)c2c1CN1CCc3cc4c(cc3C1C2)OCO4 (centres unmarked) [12c]
2. COc1cc(Br)c2c(c1OS(=O)(=O)c1c(F)c(F)c(F)c(F)c1F)CN1CCc3cc4c(cc3C1C2)OCO4 (centres unmarked) [12f]
3. CCCCS(=O)(=O)Oc1c(OC)cc(Br)c2c1CN1CCc3cc4c(cc3C1C2)OCO4 (centres unmarked) [12d]

## Result
negligible or unreliable
negligible or unreliable
negligible or unreliable

* * *

Can you tell me IC50 for the items I'm about to list?
- Measured Target: Tdp1 (Homo sapiens)
- Protocol Text: Tdp1 activity, real-time fluorescence oligonucleotide biosensor (FAM/BHQ1) assay
- Assay type: biochemical
- Assay Context: Tdp1; values of supplementary Table S1 (less rounded); read-out: IC50 (µM), Table S1
Answers are plain numbers, in µM.

>  <Compound>
CCCS(=O)(=O)Oc1c(OC)cc(Br)c2c1CN1CCc3cc4c(cc3C1C2)OCO4 (centres unmarked) [12c]

>  <Unit Name>
µM

>  <Result Value>
2.86

$$$$
>  <Compound>
COc1ccc2c(c1OS(=O)(=O)c1c(F)c(F)c(C(F)(F)F)c(F)c1F)CN1CCc3cc4c(cc3C1C2)OCO4 (centres unmarked) [11h]

>  <Unit Name>
µM

>  <Result Value>
0.93

$$$$
>  <Compound>
COc1ccc2c(c1OS(=O)(=O)c1c(F)c(F)c(F)c(F)c1F)CN1CCc3cc4c(cc3C1C2)OCO4 (centres unmarked) [11f]

>  <Unit Name>
µM

>  <Result Value>
0.98

$$$$
>  <Compound>
COc1cc(Br)c2c(c1OS(=O)(=O)c1c(F)c(F)cc(F)c1F)CN1CCc3cc4c(cc3C1C2)OCO4 (centres unmarked) [12g]

>  <Unit Name>
µM

>  <Result Value>
1.33

$$$$
>  <Compound>
COc1ccc2c(c1OS(=O)(=O)c1c(F)c(F)cc(F)c1F)CN1CCc3cc4c(cc3C1C2)OCO4 (centres unmarked) [11g]

>  <Unit Name>
µM

>  <Result Value>
1.05

$$$$
>  <Compound>
CCCCS(=O)(=O)Oc1c(OC)cc(Br)c2c1CN1CCc3cc4c(cc3C1C2)OCO4 (centres unmarked) [12d]

>  <Unit Name>
µM

>  <Result Value>
4.06

$$$$

# evaluate next
## Task Any idea what its IC50 is? The compound is COc1cc(Br)c2c(c1OS(=O)(=O)c1c(F)c(F)c(C(F)(F)F)c(F)c1F)CN1CCc3cc4c(cc3C1C2)OCO4 (centres unmarked) [12h]
## Result 1.38
